The measured values listed here are drawn from patent US7119094B1.

# assayTarget: Trypsin (type 1× from porcine pancreas) (Sus scrofa, UniProt P00761)
# Construct: Trypsin (5 ug/ml; type 1× from porcine pancreas); purchased Sigma, St. Louis Mo; host or cells: porcine pancreas
# Sequence (P00761 9-231): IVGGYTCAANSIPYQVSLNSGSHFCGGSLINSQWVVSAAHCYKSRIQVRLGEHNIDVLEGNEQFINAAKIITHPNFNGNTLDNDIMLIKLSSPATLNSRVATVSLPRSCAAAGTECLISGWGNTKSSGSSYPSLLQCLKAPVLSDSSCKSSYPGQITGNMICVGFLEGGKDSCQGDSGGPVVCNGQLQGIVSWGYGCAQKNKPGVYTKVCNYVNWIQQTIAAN
# protocolDetails: Trypsin Assay
# Type: biochemical
observationType: % Inhibition Trpysin II (100 νM) (%)
Report the value in % with no unit label.

As a guide, the following entries are already answered.
compound: O=C(Cn1c(-c2ccc(-c3ccccc3)cc2)c(Cl)nc(NCc2ccccc2)c1=O)NCCc1ccncc1 [Example E-0049]
readoutValue: 0
--
compound: O=C(Cn1c(-c2ccc(-c3ccccc3)cc2)c(Cl)nc(NCCc2ccc(Cl)cc2)c1=O)NCCc1cccnc1
readoutValue: 10
--
compound: O=C(Cn1c(-c2ccc(-c3ccccc3)cc2)c(Cl)nc(NCc2ccccc2)c1=O)NCCc1ccncc1 [Example E-0109]
readoutValue: 12

In: Give reported % Inhibition Trpysin II (100 νM) value for O=C(Cn1c(-c2ccc(-c3ccccc3)cc2)c(Cl)nc(NCCc2ccc(Cl)cc2)c1=O)NCCc1ccncc1 [Example E-0118]
Out: 9

* * *

# assayTarget: Trypsin (type 1× from porcine pancreas) (Sus scrofa)
# Construct: Trypsin (5 ug/ml; type 1× from porcine pancreas); purchased Sigma, St. Louis Mo; host or cells: porcine pancreas
# protocolDetails: Trypsin Assay
# Format: biochemical
# particulars: inhibitor at 100 νM
observationType: % Inhibition Trpysin II (100 νM)

As a guide, the following entries are already answered.
compound: O=C(Cn1c(-c2ccc(Cl)cc2)c(Cl)nc(NCCc2cccnc2)c1=O)NCCc1ccncc1 [Example E-0029]
assayTarget: Trypsin (type 1× from porcine pancreas) (Sus scrofa)
observationType: % Inhibition Trpysin II (100 νM)
readoutValue: 2%
--
compound: COc1ccc(-c2c(Cl)nc(NCCc3ccc(Cl)cc3)c(=O)n2CC(=O)NCCc2ccncc2)cc1 [Example E-0106]
assayTarget: Trypsin (type 1× from porcine pancreas) (Sus scrofa)
observationType: % Inhibition Trpysin II (100 νM)
readoutValue: 9%
--
compound: O=C(Cn1c(Cc2ccccc2)c(Cl)nc(NCCc2cccnc2)c1=O)NCCc1ccncc1 [Example E-0061]
assayTarget: Trypsin (type 1× from porcine pancreas) (Sus scrofa)
observationType: % Inhibition Trpysin II (100 νM)
readoutValue: 0%
--
compound: O=C(Cn1c(CCc2ccccc2)c(Cl)nc(NCc2ccncc2)c1=O)NCCc1ccncc1 [Example E-0072]
assayTarget: Trypsin (type 1× from porcine pancreas) (Sus scrofa)
observationType: % Inhibition Trpysin II (100 νM)
readoutValue: 0%
--
compound: O=C(Cn1c(-c2ccccc2)c(Cl)nc(NCCc2ccccc2)c1=O)NCCc1ccncc1 [Example E-0010]
assayTarget: Trypsin (type 1× from porcine pancreas) (Sus scrofa)
observationType: % Inhibition Trpysin II (100 νM)
readoutValue: 0%
--
compound: Cc1c(Cl)nc(NCc2ccccc2)c(=O)n1CC(=O)NCCc1ccncc1 [Example E-0001]
assayTarget: Trypsin (type 1× from porcine pancreas) (Sus scrofa)
observationType: % Inhibition Trpysin II (100 νM)
readoutValue: 0%

In: Give reported % Inhibition Trpysin II (100 νM) value for O=C(Cn1c(-c2ccccc2)c(Cl)nc(NCCc2cccc(Cl)c2)c1=O)NCCc1ccncc1 [Example E-0011]
Out: 0%

In: Give reported % Inhibition Trpysin II (100 νM) value for O=C(Cn1c(-c2cccc(Cl)c2)c(Cl)nc(NCc2ccccc2)c1=O)NCCc1cccnc1 [Example E-0074]
Out: 8%

* * *

Reported % Inhibition Trpysin II (100 νM) is given for each of the following compounds.
# assayTarget: Trypsin (type 1× from porcine pancreas) (Sus scrofa, UniProt P00761)
# Construct: Trypsin (5 ug/ml; type 1× from porcine pancreas); purchased Sigma, St. Louis Mo; host or cells: porcine pancreas
# protocolDetails: Trypsin Assay
# Format: biochemical
# particulars: inhibitor at 100 νM
Report the value in % with no unit label.

As a guide, the following entries are already answered.
compound: O=C(Cn1c(-c2ccc3c(c2)OCO3)c(Cl)nc(NCCN2CCOCC2)c1=O)NCCc1ccncc1
readoutValue: 2
--
compound: O=C(Cn1c(-c2ccc3c(c2)OCO3)c(Cl)nc(NCCc2ccc(Cl)cc2)c1=O)NCCc1ccncc1
readoutValue: 3
--
compound: O=C(Cn1c(-c2ccc(Cl)cc2)c(Cl)nc(NCCc2ccncc2)c1=O)NCCc1ccncc1 [Example E-0030]
readoutValue: 4
--
compound: O=C(Cn1c(-c2ccc(Cl)cc2)c(Cl)nc(NCCc2ccc(Cl)cc2)c1=O)NCCc1ccncc1 [Example E-0020]
readoutValue: 4
--
compound: O=C(Cn1c(CCc2ccccc2)c(Cl)nc(NCCc2cccc(Cl)c2)c1=O)NCCc1ccncc1
readoutValue: 0

In: Give reported % Inhibition Trpysin II (100 νM) value for O=C(Cn1c(-c2cccc(Cl)c2)c(Cl)nc(NCCc2ccc(Cl)cc2)c1=O)NCCc1ccncc1 [Example E-0094]
Out: 7

In: Give reported % Inhibition Trpysin II (100 νM) value for O=C(Cn1c(CCc2ccccc2)c(Cl)nc(NCCc2ccc(Cl)cc2)c1=O)NCCc1ccncc1
Out: 0

In: Give reported % Inhibition Trpysin II (100 νM) value for O=C(Cn1c(-c2cccc(Cl)c2)c(Cl)nc(NCCc2ccc(Cl)cc2)c1=O)NCCc1cccnc1 [Example E-0083]
Out: 6

In: Give reported % Inhibition Trpysin II (100 νM) value for O=C(Cn1c(-c2cccc(Cl)c2)c(Cl)nc(NCCc2cccc(Cl)c2)c1=O)NCCc1ccncc1 [Example E-0091]
Out: 8

In: Give reported % Inhibition Trpysin II (100 νM) value for O=C(Cn1c(-c2ccc(Cl)cc2)c(Cl)nc(NCc2ccncc2)c1=O)NCCc1ccncc1 [Example E-0024]
Out: 1

* * *

# assayTarget: Trypsin (type 1× from porcine pancreas) (Sus scrofa)
# Construct: Trypsin (5 ug/ml; type 1× from porcine pancreas); purchased Sigma, St. Louis Mo; host or cells: porcine pancreas
# protocolDetails: Trypsin Assay
# Format: biochemical
Reported % Inhibition Trpysin II (100 νM) is given for each of the following molecules.
Report the value in % with no unit label.

As a guide, the following entries are already answered.
molecule: O=C(Cn1c(-c2ccc(-c3ccccc3)cc2)c(Cl)nc(NCCc2ccccc2)c1=O)NCCc1ccncc1 [Example E-0112]
readoutUnit: %
% Inhibition Trpysin II (100 νM): 13
--
molecule: O=C(Cn1c(-c2ccc(-c3ccccc3)cc2)c(Cl)nc(NCCc2ccccc2)c1=O)NCCc1ccncc1 [Example E-0050]
readoutUnit: %
% Inhibition Trpysin II (100 νM): 0
--
molecule: O=C(Cn1c(-c2ccc(-c3ccccc3)cc2)c(Cl)nc(NCCc2cccc(Cl)c2)c1=O)NCCc1cccnc1
readoutUnit: %
% Inhibition Trpysin II (100 νM): 10
--
molecule: O=C(Cn1c(-c2ccc(-c3ccccc3)cc2)c(Cl)nc(NCCc2ccc(Cl)cc2)c1=O)NCCc1ccncc1 [Example E-0052]
readoutUnit: %
% Inhibition Trpysin II (100 νM): 0

Let us move to another entry and its % Inhibition Trpysin II (100 νM).
In: Give reported % Inhibition Trpysin II (100 νM) value for O=C(Cn1c(-c2ccc(-c3ccccc3)cc2)c(Cl)nc(NCCN2CCOCC2)c1=O)NCCc1ccncc1
Out: 0

* * *

# assayTarget: Trypsin (type 1× from porcine pancreas) (Sus scrofa)
# Construct: Trypsin (5 ug/ml; type 1× from porcine pancreas); purchased Sigma, St. Louis Mo; host or cells: porcine pancreas
# protocolDetails: Trypsin Assay
# Type: biochemical
# particulars: inhibitor at 100 νM
observationType: % Inhibition Trpysin II (100 νM) (%)
Report the value in % with no unit label.

In: Give reported % Inhibition Trpysin II (100 νM) value for O=C(Cn1c(-c2cccc(Cl)c2)c(Cl)nc(NCc2ccccc2)c1=O)NCCc1ccncc1 [Example E-0085]
Out: 9

In: Give reported % Inhibition Trpysin II (100 νM) value for COc1ccc(-c2c(Cl)nc(NCCc3cccc(Cl)c3)c(=O)n2CC(=O)NCCc2cccnc2)cc1 [Example E-0104]
Out: 9

In: Give reported % Inhibition Trpysin II (100 νM) value for O=C(Cn1c(-c2ccc(Cl)cc2)c(Cl)nc(NCCc2ccccc2)c1=O)NCCc1ccncc1 [Example E-0018]
Out: 4

In: Give reported % Inhibition Trpysin II (100 νM) value for O=C(Cn1c(-c2ccc(Cl)cc2)c(Cl)nc(NCCN2CCOCC2)c1=O)NCCc1ccncc1 [Example E-0023]
Out: 1

In: Give reported % Inhibition Trpysin II (100 νM) value for COc1ccc(-c2c(Cl)nc(NCCc3ccccc3)c(=O)n2CC(=O)NCCc2ccncc2)cc1 [Example E-0100]
Out: 12

In: Give reported % Inhibition Trpysin II (100 νM) value for O=C(Cn1c(-c2ccc3c(c2)OCO3)c(Cl)nc(NCCc2cccnc2)c1=O)NCCc1ccncc1 [Example E-0045]
Out: 4

In: Give reported % Inhibition Trpysin II (100 νM) value for O=C(Cn1c(-c2ccc3c(c2)OCO3)c(Cl)nc(NCCc2ccccc2)c1=O)NCCc1ccncc1 [Example E-0042]
Out: 5

In: Give reported % Inhibition Trpysin II (100 νM) value for O=C(Cn1c(CCc2ccccc2)c(Cl)nc(NCc2ccccc2)c1=O)NCCc1ccncc1 [Example E-0065]
Out: 0
